Entries and their EC50 values follow.
# Tested on: recombinant NL4-3 virus (nef section replaced with Renilla luciferase gene) in MT-2 cells
# MEASUREMENT PROTOCOL: HIV cell culture assay (antiviral activity, luciferase readout)
# Type: cell-based
# CONDITION PARAMETERS: Renilla, NL43, MT-2 cells infected for 4-5 days with recombinant NL4-3 Renilla luciferase virus, serial dilutions of compound
Give the quantity in nM, number only.

Worked cases, answers included:
Cc1cccc(-c2ccc3c(=O)n(-c4ccc(Cl)c5c(NS(C)(=O)=O)nn(CC(F)(F)F)c45)c([C@H](Cc4cc(F)cc(F)c4)NC(=O)Cn4nc(C(F)F)c5c4C(F)(F)[C@@H]4C[C@H]54)nc3c2)n1; 0.12
Cn1nc(NS(C)(=O)=O)c2c(Cl)ccc(-n3c([C@H](Cc4cc(F)cc(F)c4)NC(=O)Cn4nc(C(F)F)c5c4C(F)(F)[C@@H]4C[C@H]54)nc4cc(-c5cnccn5)ccc4c3=O)c21 (atropisomer, axis not shown; (aR)); 0.052

Read the next record carefully.
Input line: State the recorded EC50 for this entry: Cn1nc(NS(C)(=O)=O)c2c(Cl)ccc(-n3c([C@H](Cc4cc(F)cc(F)c4)NC(=O)Cn4nc(C(F)F)c5c4C(F)(F)[C@@H]4C[C@H]54)nc4cc(-c5ccccc5S(C)(=O)=O)ccc4c3=O)c21 (atropisomer, axis not shown; (aR))
Output line: 0.11

* * *

# MEASUREMENT PROTOCOL: Compound cytotoxicity, XTT-based colorimetric assay
# Format: cell-based
# CONDITION PARAMETERS: human, uninfected MT2 cells, day 4, XTT
Entries and their CC50 at 4 day values follow.

Cc1nccnc1-c1ccc2c(=O)n(-c3ccc(Cl)c4c(NS(C)(=O)=O)nn(CC(F)(F)F)c34)c([C@H](Cc3cc(F)cc(F)c3)NC(=O)Cn3nc(C(F)F)c4c3C(F)(F)[C@@H]3C[C@H]43)nc2c1 [Example 165]; > 500 nM
Cc1cc(C)nc(-c2ccc3c(=O)n(-c4ccc(Cl)c5c(NS(=O)(=O)C6CC6)nn(CC(F)F)c45)c([C@H](Cc4cc(F)cc(F)c4)NC(=O)Cn4nc(C(F)F)c5c4C(F)(F)[C@@H]4C[C@H]54)nc3c2)n1 (atropisomer, axis not shown; (aR)) [Example 129]; > 500 nM
Cc1cc(F)ccc1-c1ccc2c(=O)n(-c3ccc(S(=O)(=O)N4CCOCC4)cc3)c([C@H](Cc3cc(F)cc(F)c3)NC(=O)Cn3nc(C(F)F)c4c3C(F)(F)[C@@H]3C[C@H]43)nc2c1 [Example 150]; > 500 nM

Input line: State the recorded CC50 at 4 day for this entry: O=C(Cn1ccc(C2CC2)n1)N[C@@H](Cc1cc(F)cc(F)c1)c1nc2cc(-c3cccc(-c4ccccc4)c3)ccc2c(=O)n1-c1ccc(S(=O)(=O)N2CCOCC2)cc1 [Example 147]
Output line: > 1000 nM

* * *

# MEASUREMENT PROTOCOL: Compound cytotoxicity, XTT-based colorimetric assay
# Assay type: cell-based
# CONDITION PARAMETERS: human, uninfected MT2 cells, day 4, XTT
Entries and their CC50 at 4 day values follow.

Cn1nc(NS(C)(=O)=O)c2c(Cl)ccc(-n3c([C@H](Cc4cc(F)cc(F)c4)NC(=O)Cn4nc(C(F)F)c5c4C(F)(F)[C@@H]4C[C@H]54)nc4cc(-c5ccc6c(c5)CCCO6)ccc4c3=O)c21 (atropisomer, axis not shown; (aR)); > 1000 nM

Input line: State the recorded CC50 at 4 day for this entry: Cn1nc(NS(C)(=O)=O)c2c(Cl)ccc(-n3c([C@H](Cc4cc(F)cc(F)c4)NC(=O)Cn4nc(C(F)F)c5c4C(F)(F)[C@@H]4C[C@H]54)nc4cc(-c5ccc(C(C)(C)O)cc5)ccc4c3=O)c21 (atropisomer, axis not shown; (aR))
Output line: > 1000 nM

Input line: State the recorded CC50 at 4 day for this entry: COc1ccc(-c2ccc3c(=O)n(-c4ccc(Cl)c5c(NS(C)(=O)=O)nn(C)c45)c([C@H](Cc4cc(F)cc(F)c4)NC(=O)Cn4nc(C(F)F)c5c4C(F)(F)[C@@H]4C[C@H]54)nc3c2)c(CO)c1
Output line: > 500 nM

Input line: State the recorded CC50 at 4 day for this entry: Cc1ncc(-c2ccc3c(=O)n(-c4ccc(Cl)c5c(NS(C)(=O)=O)nn(CC(F)F)c45)c([C@H](Cc4cc(F)cc(F)c4)NC(=O)Cn4nc(C(F)F)c5c4C(F)(F)[C@@H]4C[C@H]54)nc3c2)cn1
Output line: > 500 nM

Input line: State the recorded CC50 at 4 day for this entry: Cn1nc(NS(C)(=O)=O)c2c(Cl)ccc(-n3c([C@H](Cc4cc(F)cc(F)c4)NC(=O)Cn4nc(C(F)F)c5c4C(F)(F)[C@@H]4C[C@H]54)nc4cc(-c5cnccn5)ccc4c3=O)c21 (atropisomer, axis not shown; (aR))
Output line: > 1000 nM

Input line: State the recorded CC50 at 4 day for this entry: COc1ccc(-c2ccc3c(=O)n(-c4ccc(Cl)c5c(NS(C)(=O)=O)nn(C)c45)c([C@H](Cc4cc(F)cc(F)c4)NC(=O)Cn4nc(C(F)F)c5c4C(F)(F)[C@@H]4C[C@H]54)nc3c2)cn1 (atropisomer, axis not shown; (aR))
Output line: > 1000 nM

Input line: State the recorded CC50 at 4 day for this entry: Cc1cc(C)nc(-c2ccc3c(=O)n(-c4ccc(Cl)c5c(NS(C)(=O)=O)nn(C)c45)c([C@H](Cc4cc(F)cc(F)c4)NC(=O)Cn4nc(C(F)(F)F)c5c4C(F)(F)[C@@H]4C[C@H]54)nc3c2)n1
Output line: > 500 nM
